So I've got a bunch of compounds here, and I need their T/C values.
Tested on: BDF1 mice, B16 melanoma ip, median survival T/C
METHOD_NOTES: NCI In Vivo Anticancer Drug Screen. Data for tumor model B16 Melanoma (intraperitoneal) in B6D2F1 (BDF1) mice
SETTINGS: endpoint: median survival time; dose: 50.0 mg/kg/injection; schedule: Q04DX003 (ip); vehicle: saline; higher = longer survival
Inconclusive results and toxic doses are left out.

Q: Reported T/C for BDF1 mice, B16 melanoma ip, median survival T/C, given OC1CC2CCC(C1)N2CCCN1c2ccccc2Sc2ccc(Cl)cc21 (configuration not stated) ?
Ans: 90 % of control

Q: Reported T/C for BDF1 mice, B16 melanoma ip, median survival T/C, given C1CCC(C2OCCO2)CC1 ?
Ans: 90 % of control

Q: Reported T/C for BDF1 mice, B16 melanoma ip, median survival T/C, given O=S(O)OS(=O)O ?
Ans: 101 % of control

Q: Reported T/C for BDF1 mice, B16 melanoma ip, median survival T/C, given CN(C)C1CCN(Cc2ccccc2)CC1 ?
Ans: 100 % of control

Q: Reported T/C for BDF1 mice, B16 melanoma ip, median survival T/C, given CC1NC(=O)COC1c1ccccc1 (configuration not stated) ?
Ans: 97 % of control

Q: Reported T/C for BDF1 mice, B16 melanoma ip, median survival T/C, given CN(C)CCCc1c2ccccc2nc2ccc(Cl)cc12 ?
Ans: 108 % of control

Q: Reported T/C for BDF1 mice, B16 melanoma ip, median survival T/C, given COc1ccc2c(ccc[n+]2C)c1 ?
Ans: 104 % of control

###

Tested on: BDF1 mice, B16 melanoma ip, median survival T/C
METHOD_NOTES: NCI In Vivo Anticancer Drug Screen. Data for tumor model B16 Melanoma (intraperitoneal) in B6D2F1 (BDF1) mice
SETTINGS: endpoint: median survival time; dose: 25.0 mg/kg/injection; schedule: Q01DX009 (ip); vehicle: saline
Toxic doses and inconclusive results are not listed. The calls were made as follows: active = survival T/C of 150% or more; inactive = T/C below 125% in these data.
Please state which outcome applies, choosing from YES = active, NO = inactive

Q: What classification did CC(C)OCCCN=C(N)N end up with in this test?
Ans: NO

Q: What classification did CC[N](CC)[Ge]([CH2]C)[CH2]C.CC[N](CC)[Ge]([CH2]C)[CH2]C end up with in this test?
Ans: NO

Q: What classification did NNC(=O)c1ccncc1 end up with in this test?
Ans: NO

Q: What classification did CN(C)C1CC1c1ccccc1 (stereo unspecified) end up with in this test?
Ans: NO

Q: What classification did CCCCN1CCNCC1 end up with in this test?
Ans: NO

Q: What classification did C[CH2][Sn]([CH2]C)([O]S(=O)(=O)CC12CCC(CC1=O)C2(C)C)[O]S(=O)(=O)CC12CCC(CC1=O)C2(C)C end up with in this test?
Ans: NO

Q: What classification did c1ccc(CN2CCOC2)cc1 end up with in this test?
Ans: NO

Q: What classification did CC(Br)C(=O)NCC(=O)O (stereo unspecified) end up with in this test?
Ans: NO

Q: What classification did O=C(NCCCN1CCN(CCCNC(=O)c2cccnc2)CC1)c1cccnc1 end up with in this test?
Ans: NO

Q: What classification did CC(=O)N(NC(C)C)C(C)C end up with in this test?
Ans: NO

Q: What classification did NC(=S)N/N=C/c1cc(-c2cccc(N)c2)ccn1 end up with in this test?
Ans: YES

Q: What classification did COc1cc(CN(C)C2CCCCC2)cc(OC)c1OC end up with in this test?
Ans: NO

Q: What classification did N#CC1CCCC[N-]1.[NH-]CC[N-]CC[NH-].[Pt+4] (stereo unspecified) end up with in this test?
Ans: NO

Q: What classification did C1CCN(CN2CCCCC2)CC1 end up with in this test?
Ans: NO

Q: What classification did Oc1cc2c(cc1O)[C@H]1c3ccc(O)c(O)c3OC[C@@]1(O)C2 end up with in this test?
Ans: NO

Q: What classification did N#Cc1cccnc1.NCCNCCN.[Br-].[Pt+4] end up with in this test?
Ans: NO

Q: What classification did CN(C)CC(C(=O)Cc1ccccc1)c1ccccc1 (stereo unspecified) end up with in this test?
Ans: NO

Q: What classification did NC(=O)CC1=NCCc2ccccc21 end up with in this test?
Ans: NO

Q: What classification did CN(C)CC(CN1c2ccccc2Sc2ccccc21)N(C)C (stereo unspecified) end up with in this test?
Ans: NO

Q: What classification did CN(C)CC/C=C1\c2ccccc2CSc2ccccc21 end up with in this test?
Ans: NO

Q: What classification did CN(C)CCN1C(=O)CC(c2ccccc2)Sc2ccccc21 (stereo unspecified) end up with in this test?
Ans: NO

Q: What classification did OCCNCCN1CCN(CCCN2c3ccccc3Sc3ccc(C(F)(F)F)cc32)CC1 end up with in this test?
Ans: NO

Q: What classification did NC(N)=NC1CCCC1 end up with in this test?
Ans: NO

Q: What classification did O=C(O)C1(C(=O)O)CCCCC1.[NH-]CC1(C[NH-])CCCCC1.[Pt+2] end up with in this test?
Ans: NO

Q: What classification did C#CCOCC1CN(C)C(=O)O1 (stereo unspecified) end up with in this test?
Ans: NO

Q: What classification did O end up with in this test?
Ans: NO

Q: What classification did N/C=N/O end up with in this test?
Ans: NO

Q: What classification did c1cc2n(n1)CCN2 end up with in this test?
Ans: NO

Q: What classification did CCCCCCCCCCN1CCC(N2CCCCC2)CC1 end up with in this test?
Ans: NO

Q: What classification did C/C=C1/CC(C)C(C)(O)C(=O)OCC2CCN3CCC(OC1=O)C23 (stereo unspecified) end up with in this test?
Ans: NO

Q: What classification did CC1NCCNCCNCCNC(C)c2cccc1n2 (stereo unspecified) end up with in this test?
Ans: NO

###

System: BDF1 mice, B16 melanoma ip, median survival T/C
METHOD_NOTES: NCI In Vivo Anticancer Drug Screen. Data for tumor model B16 Melanoma (intraperitoneal) in B6D2F1 (BDF1) mice
SETTINGS: endpoint: median survival time; dose: 12.5 mg/kg/injection; schedule: Q01DX009 (ip); vehicle: water; higher = longer survival
Toxic doses and inconclusive results are not listed.
So I've got a bunch of compounds here, and I need their T/C values.

Q: Reported T/C for BDF1 mice, B16 melanoma ip, median survival T/C, given CSC(=C[N+](=O)[O-])SC ?
Ans: 99 % of control

Q: Reported T/C for BDF1 mice, B16 melanoma ip, median survival T/C, given CC1(O)Nc2nc3c(ncn3C3OC(CO)C(O)C3O)c(=O)n2C1O (stereo unspecified) ?
Ans: 96 % of control

Q: Reported T/C for BDF1 mice, B16 melanoma ip, median survival T/C, given O=S(=O)(NC(=S)S)c1ccccc1 ?
Ans: 91 % of control

Q: Reported T/C for BDF1 mice, B16 melanoma ip, median survival T/C, given O=c1cc[nH]c(=O)o1 ?
Ans: 111 % of control

Q: Reported T/C for BDF1 mice, B16 melanoma ip, median survival T/C, given O=C1c2ccccc2C(=O)N1CC[P+](c1ccccc1)(c1ccccc1)c1ccccc1 ?
Ans: 107 % of control

Q: Reported T/C for BDF1 mice, B16 melanoma ip, median survival T/C, given CC(C(=O)O)C(=O)O.[NH-]CC[NH-].[Pt+2] ?
Ans: 179 % of control

###

So I've got a bunch of compounds here, and I need their T/C values.
Tested on: BDF1 mice, B16 melanoma ip, median survival T/C
METHOD_NOTES: NCI In Vivo Anticancer Drug Screen. Data for tumor model B16 Melanoma (intraperitoneal) in B6D2F1 (BDF1) mice
SETTINGS: endpoint: median survival time; dose: 0.75 mg/kg/injection; schedule: Q01DX009 (ip); vehicle: saline; higher = longer survival
Toxic doses and inconclusive results are not listed.

Q: Entry [CH3][Sn]([CH3])([CH3])[O]C(=O)CCl : reported T/C = ?
Ans: 104 % of control

Q: Entry C[n+]1c(/C=C/c2ccc(O)c3ncccc23)[se]c2ccccc21 : reported T/C = ?
Ans: 109 % of control

Q: Entry CC(=N\O)/C(C)=N/O.CC(=N\O)/C(C)=N/O.CCCC1CC[N-]CC1.CCCC1CC[N-]CC1.CCCC1CC[N-]CC1.CCCC1CC[N-]CC1.[Cl-].[Cl-].[Cl][Rh][Cl].[Rh+3] : reported T/C = ?
Ans: 104 % of control

Q: Entry CC(C)C(=O)[O][Sn]([CH3])([CH3])[CH3] : reported T/C = ?
Ans: 100 % of control

###

System: BDF1 mice, B16 melanoma ip, median survival T/C
METHOD_NOTES: NCI In Vivo Anticancer Drug Screen. Data for tumor model B16 Melanoma (intraperitoneal) in B6D2F1 (BDF1) mice
SETTINGS: endpoint: median survival time; dose: 400.0 mg/kg/injection; schedule: Q01DX009 (ip); vehicle: Klucel (hydroxypropylcellulose) (HPC); higher = longer survival
Toxic doses and inconclusive results are not listed.
So I've got a bunch of compounds here, and I need their T/C values.

Q: Entry Oc1ccccc1C(Nc1nc2ccccc2s1)c1ccc2cccnc2c1O (configuration not stated) : reported T/C = ?
Ans: 152 % of control

Q: Entry c1ccc(CSSCc2ccccc2)cc1 : reported T/C = ?
Ans: 108 % of control

Q: Entry O=C(OC1CCCCCCC1)C(F)(F)F : reported T/C = ?
Ans: 117 % of control

Q: Entry Clc1ccc(Br)c(Cl)c1 : reported T/C = ?
Ans: 93 % of control

Q: Entry O=C(CCCl)NC(Cc1ccccc1)c1ccccc1 (configuration not stated) : reported T/C = ?
Ans: 96 % of control

Q: Entry NC(=O)c1ccccc1NC(=O)c1ccccc1Cl : reported T/C = ?
Ans: 102 % of control

Q: Entry CCCCC(CC)CCC(O)CCC(CC)CC (configuration not stated) : reported T/C = ?
Ans: 87 % of control
